# tgt: stromelysin 1 (UniProt P08254 100-477, limits assumed)
# Sequence (P08254 100-477 limits assumed): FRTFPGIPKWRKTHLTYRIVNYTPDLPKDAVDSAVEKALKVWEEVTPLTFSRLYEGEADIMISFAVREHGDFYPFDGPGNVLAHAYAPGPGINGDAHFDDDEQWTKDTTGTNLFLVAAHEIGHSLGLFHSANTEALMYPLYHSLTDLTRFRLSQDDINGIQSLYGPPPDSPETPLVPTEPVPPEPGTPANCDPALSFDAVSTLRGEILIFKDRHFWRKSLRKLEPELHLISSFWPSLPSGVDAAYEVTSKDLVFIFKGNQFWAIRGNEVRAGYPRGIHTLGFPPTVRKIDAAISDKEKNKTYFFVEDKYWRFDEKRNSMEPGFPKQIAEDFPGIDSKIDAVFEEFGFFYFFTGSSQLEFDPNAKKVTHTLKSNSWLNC
# experimentalProtocol: cell-based or functional assay
*1 amine or outer side, *2 acyl side, *3 side chain or, on linkers, in order; H or OH if unused. [ ]: non-standard residue; d: D form. The star is where a group is joined. Dnp = O=[N+]([O-])c1ccc(*)c([N+](=O)[O-])c1; C(Me) = CSC[C@H](N[*:1])C(=O)[*:2]
recordedEndpoint: Selectivity v. Coll-3
Provide a numeric answer, followed by its unit.

These recorded examples may help you get a feel for the data.
| binder | recordedMeasurement |
| --- | --- |
| Dnp-GPLGLHV[C(Me)]-NH2 (SMILES CSC[C@H](NC(=O)[C@@H](NC(=O)[C@H](Cc1c[nH]cn1)NC(=O)[C@H](CC(C)C)NC(=O)CNC(=O)[C@H](CC(C)C)NC(=O)[C@@H]1CCCN1C(=O)CNc1ccc([N+](=O)[O-])cc1[N+](=O)[O-])C(C)C)C(N)=O) [Dnp-GPLGLHVC(Me)-NH2] | 12700 unitless |
| Dnp-GPLSIQD-NH2 (SMILES CC[C@H](C)[C@H](NC(=O)[C@H](CO)NC(=O)[C@H](CC(C)C)NC(=O)[C@@H]1CCCN1C(=O)CNc1ccc([N+](=O)[O-])cc1[N+](=O)[O-])C(=O)N[C@@H](CCC(N)=O)C(=O)N[C@@H](CC(=O)O)C(N)=O) [Dnp-GPLSIQD-NH2] | 590 unitless |
| Dnp-GPLGFRG[C(Me)]-NH2 (SMILES CSC[C@H](NC(=O)CNC(=O)[C@H](CCCNC(=N)N)NC(=O)[C@H](Cc1ccccc1)NC(=O)CNC(=O)[C@H](CC(C)C)NC(=O)[C@@H]1CCCN1C(=O)CNc1ccc([N+](=O)[O-])cc1[N+](=O)[O-])C(N)=O) [Dnp-GPLGFRGC(Me)-NH2] | 7290 unitless |
| Dnp-GPAPLHG[C(Me)]-NH2 (SMILES CSC[C@H](NC(=O)CNC(=O)[C@H](Cc1c[nH]cn1)NC(=O)[C@H](CC(C)C)NC(=O)[C@@H]1CCCN1C(=O)[C@H](C)NC(=O)[C@@H]1CCCN1C(=O)CNc1ccc([N+](=O)[O-])cc1[N+](=O)[O-])C(N)=O) [Dnp-GPAPLHGC(Me)-NH2] | 620 unitless |
| Dnp-GPLPFRG[C(Me)]-NH2 (SMILES CSC[C@H](NC(=O)CNC(=O)[C@H](CCCNC(=N)N)NC(=O)[C@H](Cc1ccccc1)NC(=O)[C@@H]1CCCN1C(=O)[C@H](CC(C)C)NC(=O)[C@@H]1CCCN1C(=O)CNc1ccc([N+](=O)[O-])cc1[N+](=O)[O-])C(N)=O) [Dnp-GPLPFRGC(Me)-NH2] | 814 unitless |

# input binder: Dnp-GPSPLHG[C(Me)]-NH2 (SMILES CSC[C@H](NC(=O)CNC(=O)[C@H](Cc1c[nH]cn1)NC(=O)[C@H](CC(C)C)NC(=O)[C@@H]1CCCN1C(=O)[C@H](CO)NC(=O)[C@@H]1CCCN1C(=O)CNc1ccc([N+](=O)[O-])cc1[N+](=O)[O-])C(N)=O) [Dnp-GPSPLHGC(Me)-NH2] ; wanted: its Selectivity v. Coll-3
2990 unitless

# input binder: Dnp-GPLSFQG-NH2 (SMILES CC(C)C[C@H](NC(=O)[C@@H]1CCCN1C(=O)CNc1ccc([N+](=O)[O-])cc1[N+](=O)[O-])C(=O)N[C@@H](CO)C(=O)N[C@@H](Cc1ccccc1)C(=O)N[C@@H](CCC(N)=O)C(=O)NCC(N)=O) [Dnp-GPLSFQG-NH2] ; wanted: its Selectivity v. Coll-3
191 unitless

# input binder: Dnp-GPSPFHV[C(Me)]-NH2 (SMILES CSC[C@H](NC(=O)[C@@H](NC(=O)[C@H](Cc1c[nH]cn1)NC(=O)[C@H](Cc1ccccc1)NC(=O)[C@@H]1CCCN1C(=O)[C@H](CO)NC(=O)[C@@H]1CCCN1C(=O)CNc1ccc([N+](=O)[O-])cc1[N+](=O)[O-])C(C)C)C(N)=O) [Dnp-GPSPFHVC(Me)-NH2] ; wanted: its Selectivity v. Coll-3
2100 unitless

# input binder: Dnp-GPSPFRG[C(Me)]-NH2 (SMILES CSC[C@H](NC(=O)CNC(=O)[C@H](CCCNC(=N)N)NC(=O)[C@H](Cc1ccccc1)NC(=O)[C@@H]1CCCN1C(=O)[C@H](CO)NC(=O)[C@@H]1CCCN1C(=O)CNc1ccc([N+](=O)[O-])cc1[N+](=O)[O-])C(N)=O) [Dnp-GPSPFRGC(Me)-NH2] ; wanted: its Selectivity v. Coll-3
1390 unitless
